Data origin, for the record: BindingDB's records for doi:10.1016/s0960-894x(99)00243-7

Field: pIC50. Provide a value for each of the molecules that follow.
- test_details: Evaluated for cytotoxicity using P388/VMDRC.04 cells (a subline of P388 murine leukemia cells expressing human recombinant human P-glycoprotein) in the absence of 10 nM vincristine
One number for each entry, as −log10 of the molar value.

# smi, pIC50
rows = [
    ("CCCCCCC[C@H]1OC(=O)C[C@H](O)[C@H](Cc2ccccc2)N(C)C(=O)[C@H](C(C)C)OC(=O)[C@H]1C", 4.37),
    ("CCCCCCC[C@@H]1CC(=O)O[C@@H](C(C)C)C(=O)N(C)[C@@H](Cc2ccccc2)[C@H](OCOC)CC(=O)O1", 4.46),
    ("CCCCCCC[C@H]1OC(=O)C[C@@H](O)[C@H](Cc2ccccc2)N(C)C(=O)[C@H](C(C)C)OC(=O)[C@H]1C", 4.83),
    ("CCCCCCC[C@H]1OC(=O)C[C@@H](OCOC)[C@H](Cc2ccccc2)N(C)C(=O)COC(=O)[C@H]1C", 4.82),
]

Kindly review the next molecule as well.
Please look up its pIC50: CCCCCCC[C@H]1OC(=O)CC[C@H](Cc2ccccc2)N(C)C(=O)[C@H](C(C)C)OC(=O)[C@H]1C
4.47

* * *

- test_details: Multidrug-resistant reversal activity using P388/VMDRC.04 cells (a subline of P388 murine leukemia cells expressing human recombinant human P-glycoprotein) in the presence of 10 nM vincristine
measurement_label: pIC50
One number for each entry, as −log10 of the molar value.

# smi, pIC50
rows = [
    ("COCO[C@H]1CC(=O)O[C@H](C)[C@H](C)C(=O)OCC(=O)N(C)[C@H]1Cc1ccccc1", 4.37),
    ("CCCCCCC[C@H]1OC(=O)C[C@@H](O)[C@H](Cc2ccccc2)N(C)C(=O)[C@H](C(C)C)OC(=O)[C@H]1C", 5.32),
]

Next up:
Query: pIC50; subject: COCO[C@H](CC(=O)OC)[C@H](Cc1ccccc1)N(C)C(=O)OCc1ccccc1
4.83

* * *

- test_details: Evaluated for cytotoxicity using P388/VMDRC.04 cells (a subline of P388 murine leukemia cells expressing human recombinant human P-glycoprotein) in the absence of 10 nM vincristine
Response field label: string, one of TRUE (IC50 strictly below 30 µM) or FALSE.

# smi, qualitative_label
measured = [
    ("CCCC[C@H]1OC(=O)C[C@H](O)[C@H](Cc2ccccc2)N(C)C(=O)COC(=O)[C@H]1C", "FALSE"),
    ("CCCCCCC[C@H]1OC(=O)C[C@H](OCOC)[C@H](Cc2ccccc2)N(C)C(=O)[C@H](C(C)C)OC(=O)[C@H]1C", "FALSE"),
    ("CCCCCCC[C@H]1OC(=O)C[C@@H](OCOC)[C@H](Cc2ccccc2)N(C)C(=O)[C@H](C)OC(=O)[C@H]1C", "TRUE"),
]

Confirm or reject: IC50 of CCCCCCC[C@H]1OC(=O)C[C@@H](O)[C@H](Cc2ccccc2)N(C)C(=O)COC(=O)[C@H]1C lies strictly below 30 µM
TRUE

Criterion: IC50 strictly below 30 µM. Is it met by CC(C)[C@@H]1OC(=O)[C@@H](C)[C@@H](C)OC(=O)C[C@@H](O)[C@H](Cc2ccccc2)N(C)C1=O ?
FALSE

API: query returns whether the compound falls strictly under 30 µM in IC50. Query: COC(=O)C[C@@H](O)[C@H](Cc1ccccc1)N(C)C(=O)OCc1ccccc1
FALSE

Please determine if CCCCCCC[C@H]1OC(=O)C[C@@H](O)[C@H](Cc2ccccc2)N(C)C(=O)[C@H](C)OC(=O)[C@H]1C is below 30 µM in terms of IC50.
TRUE

Lab note: IC50 threshold 30 µM. Does this compound come in strictly under it? CCCCCCC[C@H]1OC(=O)C[C@H](O)[C@H](Cc2ccccc2)N(C)C(=O)C(C)(C)OC(=O)[C@H]1C
TRUE

* * *

- test_details: Evaluated for cytotoxicity using P388/VMDRC.04 cells (a subline of P388 murine leukemia cells expressing human recombinant human P-glycoprotein) in the absence of 10 nM vincristine
Consider the following compounds; for each one, report its pIC50.
One number for each entry, as −log10 of the molar value.

Answered examples (6):
# smi, measurement_label, experimental_value
data = [
    ("COCO[C@@H]1CC(=O)OC[C@H](C)C(=O)O[C@@H](C(C)C)C(=O)N(C)[C@H]1Cc1ccccc1", "pIC50", 4.98),
    ("CC(C)[C@@H]1OC(=O)[C@@H](C)[C@@H](C)OC(=O)C[C@@H](O)[C@H](Cc2ccccc2)N(C)C1=O", "pIC50", 4.82),
    ("CCCCCCC[C@H]1OC(=O)C[C@@H](O)[C@H](Cc2ccccc2)N(C)C(=O)COC(=O)[C@H]1C", "pIC50", 5.24),
    ("CCCCCCC[C@@H]1CC(=O)O[C@@H](C(C)C)C(=O)N(C)[C@@H](Cc2ccccc2)[C@H](OCOC)CC(=O)O1", "pIC50", 5.22),
    ("CCCCCCC[C@@H]1CC(=O)O[C@@H](C(C)C)C(=O)N(C)[C@@H](Cc2ccccc2)[C@H](O)CC(=O)O1", "pIC50", 5.21),
    ("COCO[C@@H]1CC(=O)O[C@H](C)[C@H](C)C(=O)O[C@@H](C(C)C)C(=O)N(C)[C@H]1Cc1ccccc1", "pIC50", 5.12),
]

// each compound listed below needs its pIC50
1. CC(C)[C@@H]1OC(=O)[C@@H](C)COC(=O)C[C@@H](O)[C@H](Cc2ccccc2)N(C)C1=O
2. COC(=O)C[C@@H](O)[C@H](Cc1ccccc1)N(C)C(=O)OCc1ccccc1

1. 4.66
2. 4.77

* * *

- test_details: Evaluated for cytotoxicity using P388/VMDRC.04 cells (a subline of P388 murine leukemia cells expressing human recombinant human P-glycoprotein) in the absence of 10 nM vincristine
measurement_label: pIC50
Answers are plain numbers, as −log10 of the molar value.

# smi, pIC50
records = [
    ("CCCCCCC[C@@H]1CC(=O)O[C@@H](C(C)C)C(=O)N(C)[C@@H](Cc2ccccc2)[C@H](O)CC(=O)O1", 4.62),
]

Report pIC50 for CCCCCCC[C@H]1OC(=O)C[C@H](OCOC)[C@H](Cc2ccccc2)N(C)C(=O)C(C)(C)OC(=O)[C@H]1C please.
4.70

* * *

- test_details: Multidrug-resistant reversal activity using P388/VMDRC.04 cells (a subline of P388 murine leukemia cells expressing human recombinant human P-glycoprotein) in the presence of 10 nM vincristine
measurement_label: IC50 (µM)
Answers are plain numbers, in µM.

# smi, measurement_label, experimental_value
measured = [
    ("CCCCCCC[C@H]1OC(=O)C[C@H](O)[C@H](Cc2ccccc2)N(C)C(=O)[C@H](C(C)C)OC(=O)[C@H]1C", "IC50", 5.7),
    ("CCCCCCC[C@H]1OC(=O)C[C@H](O)[C@H](Cc2ccccc2)N(C)C(=O)C(C)(C)OC(=O)[C@H]1C", "IC50", 4.3),
    ("CCCCCCC[C@H]1OC(=O)C[C@H](OCOC)[C@H](Cc2ccccc2)N(C)C(=O)C(C)(C)OC(=O)[C@H]1C", "IC50", 5.6),
]

For each entry beneath this line, provide reported IC50.
1. CCCCCCC[C@@H](O)[C@H](C)C(=O)O[C@H](C(=O)OC)C(C)C
2. CCCCCCC[C@H]1OC(=O)C[C@@H](O)[C@H](Cc2ccccc2)N(C)C(=O)[C@H](C)OC(=O)[C@H]1C
3. CCCCCCC[C@H]1OC(=O)C[C@@H](OCOC)[C@H](Cc2ccccc2)N(C)C(=O)[C@H](C)OC(=O)[C@H]1C
4. CCCC[C@H]1OC(=O)C[C@H](O)[C@H](Cc2ccccc2)N(C)C(=O)COC(=O)[C@H]1C

1: 16; 2: 6.2; 3: 5.9; 4: 18.1

* * *

- test_details: Evaluated for cytotoxicity using P388/VMDRC.04 cells (a subline of P388 murine leukemia cells expressing human recombinant human P-glycoprotein) in the absence of 10 nM vincristine
measurement_label: IC50

# smi, IC50
records = [
    ("C[C@@H]1C(=O)OCC(=O)N(C)[C@@H](Cc2ccccc2)[C@@H](O)CC(=O)O[C@@H]1C", "> 100 µM"),
    ("COCO[C@@H]1CC(=O)OC[C@H](C)C(=O)O[C@@H](C(C)C)C(=O)N(C)[C@H]1Cc1ccccc1", "> 100 µM"),
]

Here is the next item to consider.
Entry COCO[C@H]1CC(=O)O[C@H](C)[C@H](C)C(=O)OCC(=O)N(C)[C@H]1Cc1ccccc1 has what IC50?
> 100 µM

* * *

Please go through the items and note down their pIC50.
- test_details: Evaluated for cytotoxicity using P388/VMDRC.04 cells (a subline of P388 murine leukemia cells expressing human recombinant human P-glycoprotein) in the absence of 10 nM vincristine
pIC50: −log10 of the molar value.

# smi, pIC50
data = [
    ("COCO[C@H](CC(=O)OC)[C@H](Cc1ccccc1)N(C)C(=O)OCc1ccccc1", "< 4.07"),
    ("CCCCCCC[C@@H](O)[C@H](C)C(=O)O[C@H](C(=O)OC)C(C)C", "< 4.08"),
]

Below: the item to evaluate.
Would you kindly share the measured pIC50 for COCO[C@@H]1CC(=O)O[C@H](C)[C@H](C)C(=O)O[C@@H](C(C)C)C(=O)N(C)[C@H]1Cc1ccccc1 ?
< 4.12
